# procedure_summary: brain penetrability after single oral administration
# Type: in vivo, male nude mice
# details: male, nude, mouse, brain; 1 hr after single oral 50 mg/kg
property_name: Kp at 1 h
Give the figure by itself; no unit, no explanation.

Record summary for C=CC(=O)N1C[C@H](n2c(C#CC3CC3)c(C(=O)N[C@H](C)c3ccccc3)c3c(N)ncnc32)C[C@@H]1C : reported Kp at 1 h = 0.206

----------
# Test system: P-gp
# Construct: expressed in transfected cells; host or cells: LLC-PK1 (porcine kidney) cells expressing human P-gp; mock/LLC-PK1 as control
# procedure_summary: substrate susceptibility on human P-gp, bidirectional transcellular transport, P-gp/LLC-PK1 cells
# Format: in vitro ADME
# details: human, LLC-PK1, with zosuquidar 10 μmol/L; 1 μmol/L Compound (1), 4 hours, with 10 μmol/L zosuquidar; read-out: net flux ratio
property_name: efflux ratio at 4 h, 1 μmol/L
Keep it simple and answer with nothing but the number.

The molecule C=CC(=O)N1C[C@H](n2c(C#CC3CC3)c(C(=O)N[C@H](C)c3ccccc3)c3c(N)ncnc32)C[C@@H]1C [Compound (1)] showed efflux ratio at 4 h, 1 μmol/L equal to 1.5
